- Test system: OVCAR-8 ovarian
- Experiment summary: NCI-60 one-dose screen, 48 h (100 = growth as untreated, 0 = no growth, -100 = all killed)
- Condition set: 10 µM unless noted
About 83,000 compounds went through this panel and 20% of them were active in at least one assay; those are over-represented in the sample as a whole. Calls of active or inactive are those of the source. How the source made its calls: active means growth percent below 10; inactive means the rest.

{"Compound": "CCOC(=O)C1CCN(c2ccc(N3C[C@@H](CNCc4ccc(C(=N)N)cc4)OC3=O)cc2)CC1", "Experimental target": "OVCAR-8 ovarian", "growth": "101% (inactive)"}
{"Compound": "O=C(CCCCCCN1CC(=O)N2[C@@H](C3CCCCC3)c3[nH]c4ccccc4c3C[C@H]2C1=O)NO", "Experimental target": "OVCAR-8 ovarian", "growth": "54.1% (inactive)"}
{"Compound": "CCOC(=O)c1c(C)c2c(n1C)CSc1cc(S(=O)(=O)c3ccccc3)c(=O)[nH]c1-2", "Experimental target": "OVCAR-8 ovarian", "growth": "34.4% [100 µM] (inactive)"}
{"Compound": "CC1(C)OC(=O)C(=Cc2cccc(Br)c2)C(=O)O1", "Experimental target": "OVCAR-8 ovarian", "growth": "98.4% (inactive)"}
{"Compound": "COc1ccc2c(c1)c(-c1nc(-c3cn(C)c4ncccc34)cs1)cn2CCO", "Experimental target": "OVCAR-8 ovarian", "growth": "73% (inactive)"}
{"Compound": "C=CC(C)(O)CC/C=C(\\CO)C(=O)OC1C(C)OC(O[C@](C)(C=C)CC/C=C(\\CO)C(=O)O[C@H]2C[C@@]3(C(=O)OC4OC(CO)C(O)C(O)C4OC4OC(C)C(OC5OC(CO)C(O)C5O)C(OC5OC(CO)C(O)C(O)C5O)C4O)C(CC2(C)C)C2=CCC4[C@@]5(C)CC[C@H](OC6OC(COC7OC(C)C(O)C(O)C7OC7OCC(O)C(O)C7O)C(O)C(O)C6NC(C)=O)C(C)(C)C5CC[C@@]4(C)[C@]2(C)C[C@H]3O)C(O)C1O (some centres not stated)", "Experimental target": "OVCAR-8 ovarian", "growth": "10.3% (inactive)"}
{"Compound": "CCCCCCCCNc1cc2c3c(c1)CCCN3CCC2", "Experimental target": "OVCAR-8 ovarian", "growth": "15.8% (inactive)"}
